biological target: BCR/ABL p210 fusion protein (Homo sapiens, UniProt A1Z199); experiment: Inhibition of BCR/ABL p210 fusion protein autophosphorylation at Y245 in human K562 cells measured after 2 hrs by immunoblotting
Sequence (A1Z199 whole entry, the tested form may be a part): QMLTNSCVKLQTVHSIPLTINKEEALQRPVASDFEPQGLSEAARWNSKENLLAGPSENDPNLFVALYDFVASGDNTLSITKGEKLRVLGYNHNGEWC
PROPERTY_LABEL: EC50

Cc1ccc(C(=O)N2CCC(Oc3cc(NC(=O)c4ccc(CN5CCN(C)CC5)c(C(F)(F)F)c4)ccc3C)CC2)cn1: < 100 nM

* * *

assay: AUC (0 to t) in Sprague-Dawley rat at 1 mg/kg, iv; format: ADME, organism-based; details: in vivo
PROPERTY_LABEL: AUC(0-t) (ng·h/mL)

Cc1ccc(C(=O)N2CCC(Oc3cc(NC(=O)c4ccc(CN5CCN(C)CC5)c(C(F)(F)F)c4)ccc3C)CC2)cn1: 510

* * *

target: Mast/stem cell growth factor receptor Kit (Homo sapiens); assay: Inhibition of recombinant C-terminal polyhistidine-tagged human c-KIT expressed in mammalian expression system using Tyr 06 peptide as substrate measured after 1hr by FRET based Z'Lyte assay
Sequence (P10721 whole entry): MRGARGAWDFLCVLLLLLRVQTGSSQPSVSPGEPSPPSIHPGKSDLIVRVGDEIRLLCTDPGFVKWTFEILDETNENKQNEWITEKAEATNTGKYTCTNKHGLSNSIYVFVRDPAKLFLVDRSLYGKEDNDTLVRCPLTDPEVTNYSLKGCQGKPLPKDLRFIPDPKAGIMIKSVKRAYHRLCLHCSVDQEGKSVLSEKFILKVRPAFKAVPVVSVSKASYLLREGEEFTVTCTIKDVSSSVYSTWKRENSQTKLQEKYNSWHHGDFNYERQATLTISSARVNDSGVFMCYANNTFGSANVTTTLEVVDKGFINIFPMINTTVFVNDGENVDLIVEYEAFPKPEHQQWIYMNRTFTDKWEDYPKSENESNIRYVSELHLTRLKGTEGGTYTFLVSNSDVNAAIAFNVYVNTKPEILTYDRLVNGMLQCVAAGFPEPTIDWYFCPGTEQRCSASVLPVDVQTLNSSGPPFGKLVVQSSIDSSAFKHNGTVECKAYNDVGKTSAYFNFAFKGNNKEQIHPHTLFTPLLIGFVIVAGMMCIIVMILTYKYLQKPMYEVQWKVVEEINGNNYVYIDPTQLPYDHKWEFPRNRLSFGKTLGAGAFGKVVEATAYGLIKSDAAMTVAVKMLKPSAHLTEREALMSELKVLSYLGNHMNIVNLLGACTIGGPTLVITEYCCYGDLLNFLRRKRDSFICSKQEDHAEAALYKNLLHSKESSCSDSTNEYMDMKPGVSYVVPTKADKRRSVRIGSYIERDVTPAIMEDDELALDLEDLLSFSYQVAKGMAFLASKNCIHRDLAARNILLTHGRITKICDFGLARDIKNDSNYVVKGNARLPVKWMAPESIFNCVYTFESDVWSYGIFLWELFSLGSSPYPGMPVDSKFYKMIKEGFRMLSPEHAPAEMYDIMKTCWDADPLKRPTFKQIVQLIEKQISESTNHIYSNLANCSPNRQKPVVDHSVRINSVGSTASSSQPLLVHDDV
Listed next: entries and their corresponding IC50.
PROPERTY_LABEL: IC50 (nM)

Cc1ccc(NC(=O)c2ccc(CN3CCN(C)CC3)c(C(F)(F)F)c2)cc1OC1CCN(C(=O)c2ccncc2)CC1: 256
Cc1ccc(C(=O)N2CCC(Oc3cc(NC(=O)c4ccc(CN5CCN(C)CC5)c(C(F)(F)F)c4)ccc3C)CC2)cn1: 75
Cc1cncc(C(=O)N2CCC(Oc3cc(NC(=O)c4ccc(CN5CCN(C)CC5)c(C(F)(F)F)c4)ccc3C)CC2)c1: 214
Cc1ccc(NC(=O)c2ccc(CN3CCN(C)CC3)c(C(F)(F)F)c2)cc1OC1CCN(C(=O)c2cnccc2C)CC1: 336
Cc1ccc(NC(=O)c2ccc(CN3CCN(C)CC3)c(C(F)(F)F)c2)cc1OC1CCN(C(=O)c2ccccn2)CC1: 644

* * *

experiment: AUC (0 to t) in Sprague-Dawley rat at 10 mg/kg, po; assay type: ADME, organism-based; conditions: in vivo
PROPERTY_LABEL: AUC(0-t) (ng·h/mL)

Cc1ccc(C(=O)N2CCC(Oc3cc(NC(=O)c4ccc(CN5CCN(C)CC5)c(C(F)(F)F)c4)ccc3C)CC2)cn1: 2420

* * *

assay: Mean residence time (0 to t) in Sprague-Dawley rat at 1 mg/kg, iv; type: ADME, organism-based; settings: in vivo
PROPERTY_LABEL: MRT last (h)

Cc1ccc(C(=O)N2CCC(Oc3cc(NC(=O)c4ccc(CN5CCN(C)CC5)c(C(F)(F)F)c4)ccc3C)CC2)cn1: 1.93

* * *

biological target: Platelet-derived growth factor receptor beta (Homo sapiens, UniProt P09619); experiment: Inhibition of recombinant His-tagged human PDGFR-beta cytoplasmic domain (558 to 1106 residues) expressed in baculovirus expression system measured after 1 hr by FRET based Z'Lyte assay
Sequence (P09619 whole entry, the tested form may be a part): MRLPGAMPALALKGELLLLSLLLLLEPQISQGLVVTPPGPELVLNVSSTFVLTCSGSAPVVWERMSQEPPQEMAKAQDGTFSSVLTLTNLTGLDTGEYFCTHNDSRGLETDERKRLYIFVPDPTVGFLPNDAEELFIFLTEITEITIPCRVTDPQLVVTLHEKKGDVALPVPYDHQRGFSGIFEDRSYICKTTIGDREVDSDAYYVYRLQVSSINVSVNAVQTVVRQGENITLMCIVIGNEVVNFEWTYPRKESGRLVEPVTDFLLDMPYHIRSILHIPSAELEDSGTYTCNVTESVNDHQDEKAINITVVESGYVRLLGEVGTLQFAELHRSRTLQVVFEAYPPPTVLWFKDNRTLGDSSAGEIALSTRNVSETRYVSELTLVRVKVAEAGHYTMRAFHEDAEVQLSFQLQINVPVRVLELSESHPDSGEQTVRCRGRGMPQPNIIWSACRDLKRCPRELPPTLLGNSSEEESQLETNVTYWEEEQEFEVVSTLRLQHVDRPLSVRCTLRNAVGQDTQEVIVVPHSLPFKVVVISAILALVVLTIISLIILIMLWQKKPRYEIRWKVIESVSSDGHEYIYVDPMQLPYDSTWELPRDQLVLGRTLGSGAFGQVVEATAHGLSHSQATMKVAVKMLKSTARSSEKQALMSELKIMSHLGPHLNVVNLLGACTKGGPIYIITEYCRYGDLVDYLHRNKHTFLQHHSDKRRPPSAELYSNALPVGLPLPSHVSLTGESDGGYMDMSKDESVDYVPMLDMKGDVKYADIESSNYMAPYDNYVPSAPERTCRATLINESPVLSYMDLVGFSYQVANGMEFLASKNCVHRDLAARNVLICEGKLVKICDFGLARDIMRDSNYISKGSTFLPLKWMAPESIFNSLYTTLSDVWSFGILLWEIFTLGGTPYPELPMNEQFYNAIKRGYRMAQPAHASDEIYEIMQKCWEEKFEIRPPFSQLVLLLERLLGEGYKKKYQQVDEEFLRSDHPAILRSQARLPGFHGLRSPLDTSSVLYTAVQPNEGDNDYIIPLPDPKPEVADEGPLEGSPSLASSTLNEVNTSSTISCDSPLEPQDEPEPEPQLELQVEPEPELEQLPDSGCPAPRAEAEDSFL
PROPERTY_LABEL: IC50 (nM)

Cc1ccc(C(=O)N2CCC(Oc3cc(NC(=O)c4ccc(CN5CCN(C)CC5)c(C(F)(F)F)c4)ccc3C)CC2)cn1: 80

* * *

experiment: Growth inhibition of mouse BAF3 cells measured after 72 hrs by CellTiter-Glo or CCK8 assay; type: cell-based
PROPERTY_LABEL: GI50 at 72 h

Cc1ccc(NC(=O)c2ccc(CN3CCN(C)CC3)c(C(F)(F)F)c2)cc1OC1CCN(C(=O)c2cnc(N)nc2)CC1: > 10 µM
CCC(=O)N1CCC(Oc2cc(NC(=O)c3ccc(CN4CCN(C)CC4)c(C(F)(F)F)c3)ccc2C)CC1: > 10 µM
Cc1ccc(NC(=O)c2ccc(CN3CCN(C)CC3)c(C(F)(F)F)c2)cc1OC1CCN(C(=O)c2cccnc2F)CC1: 1.52 µM
CN1CCN(Cc2ccc(C(=O)Nc3ccc(Cl)c(OC4CCN(C(=O)c5cccnc5)CC4)c3)cc2C(F)(F)F)CC1: > 10 µM
Cc1ccc(NC(=O)c2ccc(CN3CCN(C)CC3)cc2)cc1Nc1nccc(-c2cccnc2)n1: > 10 µM
Cc1ccc(NC(=O)c2ccc(CN3CCN(C)CC3)c(C(F)(F)F)c2)cc1OC1CCN(C(=O)c2cccnc2Cl)CC1: 2.72 µM
Cc1ccc(NC(=O)c2ccc(CN3CCN(C)CC3)c(C(F)(F)F)c2)cc1OC1CCN(C(=O)c2ccccc2)CC1: 4.73 µM
C=CC(=O)N1CCC(Oc2cc(NC(=O)c3ccc(CN4CCN(C)CC4)c(C(F)(F)F)c3)ccc2C)CC1: > 10 µM
Cc1ccc(NC(=O)c2ccc(CN3CCN(C)CC3)c(C(F)(F)F)c2)cc1OC1CCN(C(=O)c2ccsc2)CC1: 1.48 µM
COc1ccc(NC(=O)c2ccc(CN3CCN(C)CC3)c(C(F)(F)F)c2)cc1OC1CCN(C(=O)c2cccnc2)CC1: > 10 µM
Cc1ccc(NC(=O)c2ccc(CN3CCN(C)CC3)c(C(F)(F)F)c2)cc1OCC1CCN(C(=O)c2cccnc2)C1 (centres undefined): 3.98 µM
Cc1ccc(NC(=O)c2ccc(CN3CCN(C)CC3)c(C(F)(F)F)c2)cc1OCCNC(=O)c1cccnc1: > 10 µM
Cc1ccc(NC(=O)c2ccc(CN3CCN(C)CC3)c(C(F)(F)F)c2)cc1OC1CCN(C(=O)c2cccnc2)CC1: > 10 µM
Cc1ccc(NC(=O)c2ccc(CN3CCN(C)CC3)c(C(F)(F)F)c2)cc1OC1CCN(C(=O)Cc2cccnc2)CC1: 6.49 µM
